Recorded relative viability, one value per entry.
System: NCI-H2009
Experiment: relative viability (nuclei count vs DMSO), 5 days (fraction); higher = more cells survive
Details: first compound 0.1265 µM

Value of relative viability reported for the compound Cc1sc2c(c1C)C(c1ccc(Cl)cc1)=N[C@@H](CC(=O)OC(C)(C)C)c1nnc(C)n1-2 [JQ1] + Nc1nc2[nH]cc(CCc3ccc(C(=O)N[C@@H](CCC(=O)O)C(=O)O)cc3)c2c(=O)[nH]1 [Pemetrexed] (partner 0.2 µM) is 0.795

Memo: Cc1sc2c(c1C)C(c1ccc(Cl)cc1)=N[C@@H](CC(=O)OC(C)(C)C)c1nnc(C)n1-2 [JQ1] + CCNC(=O)c1noc(-c2cc(C(C)C)c(O)cc2O)c1-c1ccc(CN2CCOCC2)cc1 [Luminespib] (partner 0.01 µM) , reported relative viability: 0.657

Data point: Cc1sc2c(c1C)C(c1ccc(Cl)cc1)=N[C@@H](CC(=O)OC(C)(C)C)c1nnc(C)n1-2 [JQ1] + CC1(C)CCC(c2ccc(Cl)cc2)=C(CN2CCN(c3ccc(C(=O)NS(=O)(=O)c4ccc(N[C@H](CCN5CCOCC5)CSc5ccccc5)c(S(=O)(=O)C(F)(F)F)c4)cc3)CC2)C1 [Navitoclax] (partner 0.5 µM) ; relative viability = 0.938

###

System: NCI-H2405
Assay: relative viability (nuclei count vs DMSO), 5 days (fraction); higher = more cells survive
Conditions: first compound 0.253 µM
Listing of entries alongside the reported relative viability.
Reply with the value as a number alone.

Solved cases below.
relative viability of Cc1cnc(-c2cnc(NCCNc3ccc(C#N)cn3)nc2-c2ccc(Cl)cc2Cl)[nH]1 + Cc1nc(NC(=O)N2CCC[C@H]2C(N)=O)sc1-c1ccnc(C(C)(C)C(F)(F)F)c1 [Alpelisib] (partner 2 µM) , assay on NCI-H2405, is 0.793

Fill in: NCI-H2405 relative viability for Cc1cnc(-c2cnc(NCCNc3ccc(C#N)cn3)nc2-c2ccc(Cl)cc2Cl)[nH]1 + CS(=O)(=O)N1CCN(Cc2cc3nc(-c4cccc5[nH]ncc45)nc(N4CCOCC4)c3s2)CC1 [Pictilisib] (partner 1 µM) = 0.485

# Cc1cnc(-c2cnc(NCCNc3ccc(C#N)cn3)nc2-c2ccc(Cl)cc2Cl)[nH]1 + O=C(CCCCCCC(=O)Nc1ccccc1)NO [Vorinostat] (partner 1 µM) with NCI-H2405: relative viability is 0.985

# input for lookup
GET /values?item= O=c1[nH]c2ccccc2n1C1CCN(CCCC(c2ccc(F)cc2)c2ccc(F)cc2)CC1 [Pimozide] + O=C(CCCCCCC(=O)Nc1ccccc1)NO [Vorinostat] (partner 1 µM) &system= NCI-H2405 returns relative viability: 0.964

###

System: NCI-H1993
Experiment: relative viability (nuclei count vs DMSO), 5 days (fraction); higher = more cells survive
Settings: first compound 8 µM
Here the recorded relative viability is given for each entry.
Please reply with the value in numeric form only.

// O=c1[nH]c2ccccc2n1C1CCN(CCCC(c2ccc(F)cc2)c2ccc(F)cc2)CC1 [Pimozide] + O=C(c1cc(Cc2n[nH]c(=O)c3ccccc23)ccc1F)N1CCN(C(=O)C2CC2)CC1 [Olaparib] (partner 8 µM) : relative viability value = 1.13

Lab note: O=c1[nH]c2ccccc2n1C1CCN(CCCC(c2ccc(F)cc2)c2ccc(F)cc2)CC1 [Pimozide] + NC(=O)Nc1cc(-c2cccc(F)c2)sc1C(=O)N[C@H]1CCCNC1 [AZD7762] (partner 0.2 µM) gave relative viability of 0.729

Sample O=c1[nH]c2ccccc2n1C1CCN(CCCC(c2ccc(F)cc2)c2ccc(F)cc2)CC1 [Pimozide] + CS(=O)(=O)CCNCc1ccc(-c2ccc3ncnc(Nc4ccc(OCc5cccc(F)c5)c(Cl)c4)c3c2)o1 [Lapatinib] (partner 2 µM) ; relative viability observed: 0.901
